# systemTested: T1, recombinant human CTLA4 protein with human IgG1 Fc tag at the C-terminus (Acro biosystems, Cat#CT4-H5255) (human, UniProt P16410 37-162)
# T1 construct: bought protein; also called human CTLA4-Fc; CTLA4-Fc; not shown: human IgG1 Fc tag at the C-terminus
# T1 sequence (looked up): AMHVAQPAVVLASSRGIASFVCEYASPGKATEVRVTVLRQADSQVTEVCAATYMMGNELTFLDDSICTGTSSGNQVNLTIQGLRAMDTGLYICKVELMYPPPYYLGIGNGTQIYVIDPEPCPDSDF
# assayDetails: cell based blocking FACS: antibody pre-mixed with human CTLA4-Fc (1 ug/mL), added to Daudi cells; blocked ligands: cell surface CD80/CD86
In this section we review reported pIC50 values for a set of binders.
When answering, recall that pIC50 equals minus log10 of the concentration in mol/L, and write that number alone.

>>> assayresult("mouse anti-CTLA4 monoclonal antibody C1G4 (antibody, V domains shown, mouse mAb purified from hybridoma supernatant) VH: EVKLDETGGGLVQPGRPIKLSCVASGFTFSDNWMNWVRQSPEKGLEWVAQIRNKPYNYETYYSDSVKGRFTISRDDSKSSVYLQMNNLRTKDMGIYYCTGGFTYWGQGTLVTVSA VL: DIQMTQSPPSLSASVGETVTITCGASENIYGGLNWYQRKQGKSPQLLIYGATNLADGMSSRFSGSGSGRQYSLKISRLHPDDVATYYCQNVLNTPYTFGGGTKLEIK")
7.96

// below: pIC50 requested for another binder
Req: Annotate the binder mouse anti-CTLA4 monoclonal antibody C1D1 (antibody, V domains shown, mouse mAb purified from hybridoma supernatant) VH: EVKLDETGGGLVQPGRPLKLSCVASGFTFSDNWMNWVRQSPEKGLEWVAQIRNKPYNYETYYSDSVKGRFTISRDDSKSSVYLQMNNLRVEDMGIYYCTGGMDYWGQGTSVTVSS VL: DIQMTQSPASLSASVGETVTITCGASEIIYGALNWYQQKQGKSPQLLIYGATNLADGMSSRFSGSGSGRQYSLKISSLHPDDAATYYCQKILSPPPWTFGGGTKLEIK with its measured pIC50.
Resp: 8.21
